Tested on: HBV rcDNA in HepDE19 cells
Assay: HepDE19 assay with bDNA quantitation of HBV rcDNA
Format: cell-based, hepatitis B virus
Details: Hepatitis B virus, HepDE19, HepDE19 assay, inhibition of rcDNA formation, bDNA quantitation; read-out: DE-19bDNA EC50
Output t for records whose EC50 is lower than 3000 nM, f for records at or above 3000 nM.

[ask] Lab note: EC50 threshold 3000 nM. Does this compound come in strictly under it? CN(C(=O)c1cc2nc(C(F)(F)F)ccc2[nH]1)[C@@H]1COCc2[nH]c(=O)c3cc(F)c(F)cc3c21
[reply] t

[ask] For CN(C(=O)c1ccc(-c2cc(F)cc(F)c2)cc1)[C@@H]1COCc2[nH]c(=O)c3cc(F)c(F)cc3c21 , is the recorded EC50 below the cut-off of 3000 nM?
[reply] f

[ask] Is EC50 strictly under 3000 nM for the entry CN(C(=O)c1cc(F)cc(-c2cccc(F)c2)c1)[C@@H]1COCc2[nH]c(=O)c3cc(F)c(F)cc3c21 ?
[reply] f

[ask] Consider the compound CN(C(=O)c1cc2cc(F)c(F)cc2[nH]1)[C@@H]1COCc2nc(OCCN)c3cc(F)c(F)cc3c21 . Is its EC50 strictly less than 3000 nM?
[reply] t

[ask] Record CN(C(=O)[C@@](C)(O)c1ccccc1)[C@@H]1COCc2[nH]c(=O)c3cc(F)c(F)cc3c21 : is its EC50 strictly below 3000 nM?
[reply] f

[ask] For this compound, is EC50 lower than 3000 nM? CN(C(=O)c1cccc(Cl)c1)[C@@H]1COCc2[nH]c(=O)c3cc(F)c(F)cc3c21
[reply] t

[ask] Dear colleague, could you confirm whether EC50 of CN(C(=O)C1(O)Cc2ccccc2C1)[C@@H]1COCc2[nH]c(=O)c3cc(F)c(F)cc3c21 falls below 3000 nM? Thanks.
[reply] f

[ask] Item CN(C(=O)c1ccc2c(c1)c(C(F)F)nn2C)[C@@H]1COCc2[nH]c(=O)c3cc(F)c(F)cc3c21 : EC50 beneath 3000 nM, strictly?
[reply] t

[ask] Answer whether the compound CN(C(=O)c1ccc2cccn2c1)[C@@H]1COCc2[nH]c(=O)c3cc(F)c(F)cc3c21 has EC50 strictly less than 3000 nM
[reply] t

[ask] Determine if CN(C(=O)c1cncc(Cl)c1)[C@@H]1COCc2[nH]c(=O)c3cc(F)c(F)cc3c21 shows EC50 strictly lower than 3000 nM.
[reply] f

[ask] Input Cc1cccc2[nH]c(C(=O)N(C)[C@@H]3CCCc4[nH]c(=O)c5cc(F)c(F)cc5c43)cc12 ; condition: EC50 strictly below 3000 nM. Does it hold?
[reply] t

[ask] # check: EC50 < 3000 nM for CN(C(=O)c1cnc(C(F)(F)F)c(Cl)c1)C1CNCc2[nH]c(=O)c3cc(F)c(F)cc3c21 (single isomer, unassigned)
[reply] t

[ask] Report whether reported EC50 is lower than 3000 nM (strictly) for COc1n[nH]c2ccc(C(=O)N(C)[C@@H]3COCc4[nH]c(=O)c5cc(F)c(F)cc5c43)cc12
[reply] f

[ask] I wonder whether COc1c2cc(C(=O)N(C)[C@@H]3COCc4[nH]c(=O)c5cc(F)c(F)cc5c43)ccc2nn1C(F)F has EC50 below 3000 nM. Can you tell?
[reply] f

[ask] Please state whether EC50 is below 3000 nM for CCc1ccc2[nH]c(C(=O)N(C)[C@@H]3COCc4[nH]c(=O)c5cc(F)c(F)cc5c43)cc2c1
[reply] f

[ask] # check: EC50 < 3000 nM for CN(C(=O)c1ccn2cccc2c1)[C@@H]1COCc2[nH]c(=O)c3cc(F)c(F)cc3c21
[reply] t

[ask] Threshold test, EC50 < 3000 nM: CN(C(=O)C(O)(c1ccccc1)c1ccccc1)[C@@H]1COCc2[nH]c(=O)c3cc(F)c(F)cc3c21
[reply] f

[ask] Please check: EC50 for CN(C(=O)c1cc2ccc(C(F)F)cn2c1)[C@@H]1COCc2[nH]c(=O)c3cc(F)c(F)cc3c21 , strictly under 3000 nM or not?
[reply] t

[ask] Please check: EC50 for CN(C(=O)c1cnc(C(F)(F)F)c(F)c1)C1CNCc2[nH]c(=O)c3cc(F)c(F)cc3c21 (single isomer, unassigned) , strictly under 3000 nM or not?
[reply] t

[ask] Criterion: EC50 strictly below 3000 nM. Is it met by C=C(C(=O)N(C)[C@@H]1COCc2[nH]c(=O)c3cc(F)c(F)cc3c21)c1ccccc1 ?
[reply] f

[ask] Hello, I'm reviewing records and need to know if EC50 of CN(C(=O)c1cc2cc(S(C)(=O)=O)ccc2[nH]1)C1CNCc2[nH]c(=O)c3cc(F)c(F)cc3c21 (single isomer, unassigned) is below 3000 nM. Could you check?
[reply] f

[ask] Strictly below 3000 nM in EC50? CN(C(=O)c1cc2n(c1)CCCC2)[C@@H]1COCc2[nH]c(=O)c3cc(F)c(F)cc3c21
[reply] t

[ask] For this compound, is EC50 lower than 3000 nM? Cc1cc(F)cc2[nH]c(C(=O)N(C)[C@@H]3CCCc4[nH]c(=O)c5cc(F)c(F)cc5c43)cc12
[reply] t

[ask] Quick check: EC50 of CN(C(=O)c1cc2occc2[nH]1)[C@@H]1COCc2[nH]c(=O)c3cc(F)c(F)cc3c21 under 3000 nM?
[reply] t

[ask] Quick check: EC50 of CN(C(=O)c1cccc(-c2cccc(F)c2)c1)C1CNCc2[nH]c(=O)c3cc(F)c(F)cc3c21 (single isomer, unassigned) under 3000 nM?
[reply] f

[ask] Hello, I'm reviewing records and need to know if EC50 of CN(C(=O)c1cccc(Oc2cccc(F)c2)c1)[C@@H]1COCc2[nH]c(=O)c3cc(F)c(F)cc3c21 is below 3000 nM. Could you check?
[reply] f

[ask] Please check: EC50 for Cc1ccc2[nH]c(C(=O)N(C)[C@@H]3COCc4[nH]c(=O)c5cc(F)c(F)cc5c43)cc2c1 , strictly under 3000 nM or not?
[reply] t

[ask] Record O=C(N[C@@H]1COCc2[nH]c(=O)c3cc(F)c(F)cc3c21)c1cc2ccccn2c1 : is its EC50 strictly below 3000 nM?
[reply] t
